Property: IC50; scope: individual molecules
molecular target: Peptidyl-prolyl cis-trans isomerase FKBP1A (Homo sapiens, UniProt P62942); experiment: Antagonist activity at human FKBP12 measured after 30 mins by fluorescein labelled SLF tracer based fluorescence polarization assay
Sequence (P62942 whole entry): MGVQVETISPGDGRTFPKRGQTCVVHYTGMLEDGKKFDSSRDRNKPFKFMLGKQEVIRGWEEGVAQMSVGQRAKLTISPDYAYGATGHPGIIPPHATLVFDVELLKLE
PROPERTY NAME: IC50

[[record]]
smiles_text = "CO[C@H]1C[C@@H](C)C/C(C)=C/[C@@H](CCCC(=O)N2CCC(CO)CC2)C(=O)C[C@H](O)[C@@H](C)[C@@H](/C(C)=C/[C@@H]2CC[C@@H](OCCO)[C@H](OC)C2)OC(=O)[C@@H]2CCCCN2C(=O)C(=O)[C@]2(O)O[C@H]1[C@@H](OC)C[C@H]2C"
target_of_assay = "Peptidyl-prolyl cis-trans isomerase FKBP1A (Homo sapiens, UniProt P62942)"
reported_value = "23.6 nM"

[[record]]
smiles_text = "CO[C@H]1C[C@@H](C)C/C(C)=C/[C@@H](CCCC(=O)N2CC(N3CCOCC3)C2)C(=O)C[C@H](O)[C@@H](C)[C@@H](/C(C)=C/[C@@H]2CC[C@@H](O)[C@H](OC)C2)OC(=O)[C@@H]2CCCCN2C(=O)C(=O)[C@]2(O)O[C@H]1[C@@H](OC)C[C@H]2C"
target_of_assay = "Peptidyl-prolyl cis-trans isomerase FKBP1A (Homo sapiens, UniProt P62942)"
reported_value = "9.52 nM"

[[record]]
smiles_text = "CO[C@H]1C[C@@H](C)C/C(C)=C/[C@@H](/C=C/CCCC(=O)N2CCNCC2)C(=O)C[C@H](O)[C@@H](C)[C@@H](/C(C)=C/[C@@H]2CC[C@@H](O)[C@H](OC)C2)OC(=O)[C@@H]2CCCCN2C(=O)C(=O)[C@]2(O)O[C@H]1[C@@H](OC)C[C@H]2C"
target_of_assay = "Peptidyl-prolyl cis-trans isomerase FKBP1A (Homo sapiens, UniProt P62942)"
reported_value = "12.6 nM"

[[record]]
smiles_text = "CO[C@H]1C[C@@H](C)C/C(C)=C/[C@@H](CC(=O)N2CCCC2)C(=O)C[C@H](O)[C@@H](C)[C@@H](/C(C)=C/[C@@H]2CC[C@@H](OC(=O)N3CC(O)C3)[C@H](OC)C2)OC(=O)[C@@H]2CCCCN2C(=O)C(=O)[C@]2(O)O[C@H]1[C@@H](OC)C[C@H]2C"
target_of_assay = "Peptidyl-prolyl cis-trans isomerase FKBP1A (Homo sapiens, UniProt P62942)"
reported_value = "22.6 nM"

[[record]]
smiles_text = "CO[C@H]1C[C@@H](C)C/C(C)=C/[C@@H](CCCC(=O)NCCc2ccccn2)C(=O)C[C@H](O)[C@@H](C)[C@@H](/C(C)=C/[C@@H]2CC[C@@H](O)[C@H](OC)C2)OC(=O)[C@@H]2CCCCN2C(=O)C(=O)[C@]2(O)O[C@H]1[C@@H](OC)C[C@H]2C"
target_of_assay = "Peptidyl-prolyl cis-trans isomerase FKBP1A (Homo sapiens, UniProt P62942)"
reported_value = "14.3 nM"


* * *

molecular target: Peptidyl-prolyl cis-trans isomerase FKBP1A (Homo sapiens); experiment: Antagonist activity at recombinant human N-terminal His6-tagged FKBP12 expressed in Escherichia coli assessed as inhibition of FK506 mediated FKBP12 binding to calcineurin using […] pretreated for 1 hr followed by substrate addition measured after 1 hr by biomol green dye based spectrophotometric method
pIC50: −log10 of the molar value.
PROPERTY NAME: pIC50

[[record]]
smiles_text = "CC[C@@H]1/C=C(\\C)C[C@H](C)C[C@H](OC)[C@H]2O[C@@](O)(C(=O)C(=O)N3CCCC[C@H]3C(=O)O[C@H](/C(C)=C/[C@@H]3CC[C@@H](OC(=O)N4CCN(C)CC4)[C@H](OC)C3)[C@H](C)[C@@H](O)CC1=O)[C@H](C)C[C@@H]2OC"
reported_value = 5.76

[[record]]
smiles_text = "CO[C@H]1C[C@@H](C)C/C(C)=C/[C@@H](CCCC(=O)N2CC(N3CCOCC3)C2)C(=O)C[C@H](O)[C@@H](C)[C@@H](/C(C)=C/[C@@H]2CC[C@@H](O)[C@H](OC)C2)OC(=O)[C@@H]2CCCCN2C(=O)C(=O)[C@]2(O)O[C@H]1[C@@H](OC)C[C@H]2C"
reported_value = 5.97

[[record]]
smiles_text = "CO[C@H]1C[C@@H](C)C/C(C)=C/[C@@H](CCCC(=O)NCCN2CCOCC2)C(=O)C[C@H](O)[C@@H](C)[C@@H](/C(C)=C/[C@@H]2CC[C@@H](O)[C@H](OC)C2)OC(=O)[C@@H]2CCCCN2C(=O)C(=O)[C@]2(O)O[C@H]1[C@@H](OC)C[C@H]2C"
reported_value = 6.08

[[record]]
smiles_text = "CO[C@H]1C[C@@H](C)C/C(C)=C/[C@@H](CC(=O)N2CCN(C)CC2)C(=O)C[C@H](O)[C@@H](C)[C@@H](/C(C)=C/[C@@H]2CC[C@@H](O)[C@H](OC)C2)OC(=O)[C@@H]2CCCCN2C(=O)C(=O)[C@]2(O)O[C@H]1[C@@H](OC)C[C@H]2C"
reported_value = 5.96


* * *

Property: IC50; scope: individual molecules
biological target: Peptidyl-prolyl cis-trans isomerase FKBP1A (Homo sapiens, UniProt P62942); assay: Antagonist activity at human FKBP12 measured after 30 mins by fluorescein labelled SLF tracer based fluorescence polarization assay
PROPERTY NAME: IC50 (nM)

[[record]]
smiles_text = "CO[C@H]1C[C@@H](C)C/C(C)=C/[C@@H](CCCC(=O)NCCN2CCOCC2)C(=O)C[C@H](O)[C@@H](C)[C@@H](/C(C)=C/[C@@H]2CC[C@@H](O)[C@H](OC)C2)OC(=O)[C@@H]2CCCCN2C(=O)C(=O)[C@]2(O)O[C@H]1[C@@H](OC)C[C@H]2C"
target_of_assay = "Peptidyl-prolyl cis-trans isomerase FKBP1A (Homo sapiens, UniProt P62942)"
reported_value = 11.5

[[record]]
smiles_text = "CO[C@H]1C[C@@H](C)C/C(C)=C/[C@@H](CCCC(=O)N(CCO)CCO)C(=O)C[C@H](O)[C@@H](C)[C@@H](/C(C)=C/[C@@H]2CC[C@@H](O)[C@H](OC)C2)OC(=O)[C@@H]2CCCCN2C(=O)C(=O)[C@]2(O)O[C@H]1[C@@H](OC)C[C@H]2C"
target_of_assay = "Peptidyl-prolyl cis-trans isomerase FKBP1A (Homo sapiens, UniProt P62942)"
reported_value = 13.4


* * *

assay: Clearance in mouse at 3 mg/kg, iv; format: ADME, organism-based; details: in vivo
Property: clearance; scope: individual compounds
PROPERTY NAME: clearance

[[record]]
compound = "C=CC[C@@H]1/C=C(\\C)C[C@H](C)C[C@H](OC)[C@H]2O[C@@](O)(C(=O)C(=O)N3CCCC[C@H]3C(=O)O[C@H](/C(C)=C/[C@@H]3CC[C@@H](O)[C@H](OC)C3)[C@H](C)[C@@H](O)CC1=O)[C@H](C)C[C@@H]2OC [TACROLIMUS ANHYDROUS]"
property_name = "clearance"
reported_value = "29.5 mL/min/kg"

[[record]]
compound = "CC[C@@H]1/C=C(\\C)C(O)[C@H](C)C[C@H](OC)[C@H]2O[C@@](O)(C(=O)C(=O)N3CCCC[C@H]3C(=O)O[C@H](/C(C)=C/[C@@H]3CC[C@@H](O)[C@H](OC)C3)[C@H](C)[C@@H](O)CC1=O)[C@H](C)C[C@@H]2OC (stereo not given in full)"
property_name = "clearance"
reported_value = "60.8 mL/min/kg"

[[record]]
compound = "CO[C@H]1C[C@@H](C)C/C(C)=C/[C@@H](CCCSCCO)C(=O)C[C@H](O)[C@@H](C)[C@@H](/C(C)=C/[C@@H]2CC[C@@H](O)[C@H](OC)C2)OC(=O)[C@@H]2CCCCN2C(=O)C(=O)[C@]2(O)O[C@H]1[C@@H](OC)C[C@H]2C"
property_name = "clearance"
reported_value = "22.8 mL/min/kg"

[[record]]
compound = "CO[C@H]1C[C@@H](C)C/C(C)=C/[C@@H](CC(=O)N2CCCC2)C(=O)C[C@H](O)[C@@H](C)[C@@H](/C(C)=C/[C@@H]2CC[C@@H](O)[C@H](OC)C2)OC(=O)[C@@H]2CCCCN2C(=O)C(=O)[C@]2(O)O[C@H]1[C@@H](OC)C[C@H]2C"
property_name = "clearance"
reported_value = "22.8 mL/min/kg"

[[record]]
compound = "CO[C@H]1C[C@@H](C)C/C(C)=C/[C@@H](CC(=O)N2CCCC2)C(=O)C[C@H](O)[C@@H](C)[C@@H](/C(C)=C/[C@@H]2CC[C@@H](OC(=O)N3CC(O)C3)[C@H](OC)C2)OC(=O)[C@@H]2CCCCN2C(=O)C(=O)[C@]2(O)O[C@H]1[C@@H](OC)C[C@H]2C"
property_name = "clearance"
reported_value = "16.1 mL/min/kg"


Each recorded value in this set is attributed to ChEMBL document CHEMBL4017474.
